Sourced from the NIST ThermoML archive (doi:10.1021/je0499364)

Please provide measured molar heat capacity at constant pressure for the entries that follow.
Test: molar heat capacity at constant pressure
Conditions: 140 K; 101.33 kPa; Crystal
Give bare numbers, in J/K/mol.

| molecule | scaleUnit | reportedResult |
| --- | --- | --- |
| CCCCCCCCCCCCC(=O)OC [methyl tridecanoate] | J/K/mol | 215.67 |
| CCCCCCCCCCCCCC(=O)OC [methyl tetradecanoate] | J/K/mol | 224.93 |
| CCCCCCCCCCCCCCCC(=O)OC [methyl hexadecanoate] | J/K/mol | 250.27 |

I'm hoping you can list molar heat capacity at constant pressure for every molecule here, please.
1. CCCCCCCCCCCCCCCCC(=O)OC [methyl heptadecanoate]
2. CCCCCCCC(=O)OC [methyl octanoate]
3. CCCCCCCCCCCCCCC(=O)OC [methyl pentadecanoate]
4. CCCCCCCCCCC(=O)OC [methyl undecanoate]
5. CCCCCCCCCCCCCCCCCCC(=O)OC [methyl nonadecanoate]
6. CCCCCCCCCC(=O)OC [methyl decanoate]

1. 265.74
2. 153.44
3. 239.15
4. 191.72
5. 286.84
6. 177.35

Batch lookup, molar heat capacity at constant pressure per entry.
1. CCCCCCCCCCCC(=O)OC [methyl dodecanoate]
2. CCCCCCCCCCCCCCCCCCCC(=O)OC [methyl eicosanoate]
3. CCCCCCCCC(=O)OC [methyl nonanoate]
4. CCCCCCCCCCCCCCCCCC(=O)OC [methyl octadecanoate]

1: 201.16; 2: 299.45; 3: 168.48; 4: 274.54
